Target: T1, MAdCAM (analyte of the BIAcore experiment) (UniProt Q13477 19-317)
T1 construct: The antibodies are called anti-hMAdCAM; also called Mucosal addressin cell adhesion molecule
T1 sequence (looked up): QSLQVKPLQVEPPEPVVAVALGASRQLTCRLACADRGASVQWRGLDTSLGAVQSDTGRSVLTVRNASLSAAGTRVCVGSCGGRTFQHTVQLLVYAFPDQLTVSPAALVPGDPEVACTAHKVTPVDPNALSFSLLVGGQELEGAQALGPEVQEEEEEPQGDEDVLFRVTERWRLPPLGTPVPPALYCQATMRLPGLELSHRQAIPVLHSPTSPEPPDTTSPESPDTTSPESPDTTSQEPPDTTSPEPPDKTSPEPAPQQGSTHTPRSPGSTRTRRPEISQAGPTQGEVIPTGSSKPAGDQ
Test: BIAcore (SPR); antibody immobilised, MAdCAM injected
Endpoint: kon (M⁻¹ s⁻¹)
The answer is to be given in M⁻¹ s⁻¹; state only the numeric part.

Examples with their reported kon follow.
INSERT INTO assay_data (binder, endpoint, value_observed) VALUES
  ('7.16.6_LVS (antibody, human IgG2, kappa, V domains shown, Recombinant, from transiently transfected FreeStyle HEK293 cells) VH: QVQLVQSGAEVKKPGASVKVSCKASGYTFTSYGINWVRQAPGQGLEWMGWISVYSGNTNYAQKLQGRVTMTADTSTSTAYMDLRSLRSDDTAVYYCAREGSSSSGDYYYGMDVWGQGTTVTVSS VL: DIVMTQTPLSLSVTPGQPASISCKSSQSLLHTDGTTYLYWYLQKPGQPPQLLIYEVSNRFSGVPDRFSGSGSGTDFTLKISRVEAEDVGVYYCMQSIQLPWTFGQGTKVEIKR', 'kon', 194000),
  ('7.16.6_S (antibody, human IgG2, kappa, V domains shown, Recombinant, from transiently transfected FreeStyle HEK293 cells; also called 7.16.6-5; 7.16.6_5) VH: QVQLVQSGAEVKKPGASVKVSCKASGYTFTSYGINWVRQAPGQGLEWMGWISVYSGNTNYAQKVQGRVTMTADTSTSTAYMDLRSLRSDDTAVYYCAREGSSSSGDYYYGMDVWGQGTTVTVSS VL: DIVMTQTPLSLSVTPGQPASISCKSSQSLLHTDGTTYLYWYLQKPGQPPQLLIYEVSNRFSGVPDRFSGSGSGTDFTLKISRVEAEDVGIYYCMQSIQLPWTFGQGTKVEIKR', 'kon', 183000),
  ('7.16.6_VS (antibody, human IgG2, kappa, V domains shown, Recombinant, from transiently transfected FreeStyle HEK293 cells; also called 7.16.6_VS adduct) VH: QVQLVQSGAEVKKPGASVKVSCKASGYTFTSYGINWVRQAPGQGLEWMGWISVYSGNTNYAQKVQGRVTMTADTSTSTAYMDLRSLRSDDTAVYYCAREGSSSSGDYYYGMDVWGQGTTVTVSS VL: DIVMTQTPLSLSVTPGQPASISCKSSQSLLHTDGTTYLYWYLQKPGQPPQLLIYEVSNRFSGVPDRFSGSGSGTDFTLKISRVEAEDVGVYYCMQSIQLPWTFGQGTKVEIKR', 'kon', 240000),
  ('7.16.6_V (antibody, human IgG2, kappa, V domains shown, Recombinant, from transiently transfected FreeStyle HEK293 cells; also called 7.16.6_V adduct) VH: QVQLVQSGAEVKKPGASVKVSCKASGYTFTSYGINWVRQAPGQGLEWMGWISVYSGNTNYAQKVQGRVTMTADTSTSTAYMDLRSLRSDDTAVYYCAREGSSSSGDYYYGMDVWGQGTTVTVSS VL: DIVMTQTPLSLSVTPGQPASISCKSSQSLLHTDGTTYLYWYLQKPGQPPQLLIYEVSNRFSGVPDRFSGSGSGTDFTLKISRVEAEDVGVYYCMQNIQLPWTFGQGTKVEIKR', 'kon', 153000);

Next:
Read off the recorded kon for 7.16.6_L (antibody, V domains shown, The light chain is the parent 7.16.6 kappa chain, rebuilt as for m1; also called 7.16.6_L variant) VH: QVQLVQSGAEVKKPGASVKVSCKASGYTFTSYGINWVRQAPGQGLEWMGWISVYSGNTNYAQKLQGRVTMTADTSTSTAYMDLRSLRSDDTAVYYCAREGSSSSGDYYYGMDVWGQGTTVTVSS VL: DIVMTQTPLSLSVTPGQPASISCKSSQSLLHTDGTTYLYWYLQKPGQPPQLLIYEVSNRFSGVPDRFSGSGSGTDFTLKISRVEAEDVGIYYCMQNIQLPWTFGQGTKVEIKR
152000
